Data origin: patent US20260242478A1

# tested-system: T1, PSMA Fab (biotinylated (site not stated))
# T1 construct: Biotinylated PSMA Fab captured on neutravidin coated plates in the phage ELISA; also called anti-PSMA Fab; 006 PSMA Fab
# test: clonal phage ELISA on biotinylated PSMA Fab captured on neutravidin plates, anti-M13-HRP detection;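 further: crude clonal phage supernatants added to wells preincubated with PSMA antigen or with blocking buffer only (no wash between), briefly incubated, then washed before detecting bound phage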
Where no end group is shown, it is not given here.
Each record here notes measured Phage binding ELISA signal, Anti-PSMA Fab.
observed-property: Phage binding ELISA signal, Anti-PSMA Fab

>>> value_measured("AEVRCVPQWMCFGL [Phage-3380]")
1.81
>>> value_measured("QVPMCKPMWMCAGF (cysteine pairing not given here; also: fused to pIII of bacteriophage) [Phage-3379]")
1.81
>>> value_measured("LEVHCRPSWMCVGF [Phage-3384]")
1.81
>>> value_measured("QGTLCVPSWMCSGF [Phage-3390]")
1.8
>>> value_measured("IEAVCKPSWMCAGF (cysteine pairing not given here; also: fused to pIII of bacteriophage) [Phage-3391]")
1.8
>>> value_measured("FSVRCVPEWMCAGF (cysteine pairing not given here; also: fused to pIII of bacteriophage) [Phage-3387]")
1.8
>>> value_measured("FTALCKPMWMCRGF [Phage-3386]")
1.81
